Recorded melting point, one value per entry.

Below, each entry is followed by its recorded melting point result.
# Compound, Measurement label, Value observed
records = [
    ("CC(c1ccc(C(F)(F)F)nc1)S(C)(=O)=Nc1nc(-c2ccc(F)cc2)cs1 (stereo not shown)", "melting point", "89 to 94 °C"),
    ("COc1ccccc1-c1csc(N=S(C)(=O)C(C)c2ccc(C(F)(F)F)nc2)n1 (stereo not shown)", "melting point", "72 to 77 °C"),
    ("CC(c1ccc(C(F)(F)F)nc1)S(C)(=O)=Nc1nc(C(F)(F)C(F)(F)F)cs1 (stereo not shown)", "melting point", "95 to 100 °C"),
]

Task item: Which melting point is reported for this compound? CC(c1ccc(C(F)(F)F)nc1)S(C)(=O)=Nc1nc(-c2ccsc2)cs1 (stereo not shown)
Reply: 168 to 173 °C

Task item: If you can, please state the reported melting point value of CC(c1ccc(C(F)(F)F)nc1)S(C)(=O)=Nc1nc(-c2ccc(C#N)cc2)cs1 (stereo not shown) .
Reply: 78 to 80 °C

Task item: Would you mind telling me what melting point value was observed for CC(c1ccc(C(F)(F)F)nc1)S(C)(=O)=Nc1nc(-c2nccs2)cs1 (stereo not shown) ?
Reply: 163 to 167 °C

Task item: Using the record for CCc1csc(N=S2(=O)CCCC2c2ccc(Cl)nc2)n1 (stereo not shown) , report its melting point.
Reply: 67 to 71 °C

Task item: Any idea what its melting point is? The compound is CC(c1ccc(C(F)(F)F)nc1)S(C)(=O)=Nc1nc(C(C)(C)C)cs1 (stereo not shown)
Reply: 144 to 148 °C

Task item: Field request: melting point | item: CCc1csc(N=S(C)(=O)Cc2ccc(Cl)nc2)n1 (stereo not shown)
Reply: 114 to 116 °C

Task item: Can you look up the measured melting point of CC(c1ccc(C(F)(F)F)nc1)S(C)(=O)=Nc1nc(-c2ccc(Cl)s2)cs1 (stereo not shown) for me?
Reply: 124 to 128 °C
